TARGET OF ASSAY: furin, P09958;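 also: purified furin at 1:10 enzyme:substrate in 50 mM HEPES pH 7.5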
Sequence (P09958 whole entry): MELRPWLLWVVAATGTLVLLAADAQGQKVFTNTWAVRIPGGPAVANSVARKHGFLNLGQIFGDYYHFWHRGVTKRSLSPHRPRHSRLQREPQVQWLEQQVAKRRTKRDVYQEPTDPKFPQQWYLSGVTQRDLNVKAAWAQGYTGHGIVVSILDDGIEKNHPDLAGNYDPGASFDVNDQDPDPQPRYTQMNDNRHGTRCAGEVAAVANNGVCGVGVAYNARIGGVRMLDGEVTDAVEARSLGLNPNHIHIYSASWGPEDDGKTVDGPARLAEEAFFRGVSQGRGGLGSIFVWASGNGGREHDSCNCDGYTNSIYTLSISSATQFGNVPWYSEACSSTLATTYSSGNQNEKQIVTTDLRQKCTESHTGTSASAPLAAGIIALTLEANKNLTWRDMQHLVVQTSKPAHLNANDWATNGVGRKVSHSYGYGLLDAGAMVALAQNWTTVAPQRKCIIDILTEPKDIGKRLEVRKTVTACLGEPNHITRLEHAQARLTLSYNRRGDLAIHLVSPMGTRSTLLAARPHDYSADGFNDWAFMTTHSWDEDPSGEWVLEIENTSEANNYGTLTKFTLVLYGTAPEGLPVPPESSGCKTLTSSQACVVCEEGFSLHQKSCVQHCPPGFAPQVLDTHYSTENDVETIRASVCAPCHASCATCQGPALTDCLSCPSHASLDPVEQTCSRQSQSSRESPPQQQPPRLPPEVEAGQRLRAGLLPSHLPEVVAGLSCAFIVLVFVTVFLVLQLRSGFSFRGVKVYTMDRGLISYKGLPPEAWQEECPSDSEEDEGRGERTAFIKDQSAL
PROTOCOL NOTES: furin cleavage Z-score vs untreated control; higher = more cleavage, active = 3.5 or more, inactive = 1 or less, 8 variable residues between constant flanks
TEST PARAMETERS: 30 min
Some of the results follow. The hit rate among all sequences tested is not known here.
Criterion: furin cleavage Z-score meeting or surpassing 6. Met: Criterion met. Not met: Criterion not met.

> print(dat)
              construct.sequence  qualitative.label
 1  CAYKSRTKRSAGNASASA [FS-1581]      Criterion met
 2  CARYSRSSAAAGNASASA [FS-1811]  Criterion not met
 3    CALAHGVRVLAGNASASA [HC236]  Criterion not met
 4   CATTPCSGSRAGNASASA [HC1933]  Criterion not met
 5  CAHRGVTKRSAGNASASA [FS-1593]      Criterion met
 6   CAGSSSTSGIAGNASASA [HC1337]  Criterion not met
 7  CASKRRARRQAGNASASA [FS-1487]      Criterion met
 8   CAVVCCSHSYAGNASASA [HC2055]  Criterion not met
 9   CATTPCSGYWAGNASASA [HC1909]  Criterion not met
10   CANVVRARRQAGNASASA [FS-698]      Criterion met
11  CAGRSRTKRSAGNASASA [FS-1332]      Criterion met
12   CAMEECSQELAGNASASA [HC1752]  Criterion not met
13   CADDMEECSQAGNASASA [HC1811]  Criterion not met
